TARGET UNDER TEST: T1, human oxytocin receptor (human, UniProt P30559 1-389)
T1 sequence (looked up): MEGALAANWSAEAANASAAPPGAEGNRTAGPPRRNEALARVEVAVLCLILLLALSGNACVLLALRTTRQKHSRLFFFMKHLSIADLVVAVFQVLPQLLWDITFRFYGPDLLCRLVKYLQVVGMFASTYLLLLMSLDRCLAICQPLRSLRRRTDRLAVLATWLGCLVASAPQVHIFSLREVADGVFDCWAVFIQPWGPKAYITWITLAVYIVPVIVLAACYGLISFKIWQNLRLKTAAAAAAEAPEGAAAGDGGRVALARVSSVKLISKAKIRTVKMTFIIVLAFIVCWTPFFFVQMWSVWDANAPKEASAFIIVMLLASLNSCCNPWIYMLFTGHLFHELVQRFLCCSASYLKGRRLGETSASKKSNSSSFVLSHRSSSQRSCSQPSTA
MEASUREMENT NOTES: cell-based or functional assay
Bridges are numbered along the chain shown (N, C = ends). Where no end group is shown, it is not given here. [ ]: non-standard residue; d: D form. Sec = N[C@@H](C[SeH])C(=O)O
RESULT TYPE: Emax, FLIPR calcium assay (%)

Solved cases below.
- BINDER: "CYIQN[Sec]PLG-NH2 (bridge 1-6; also: selenosulfide bond) [[C6U]-OT]"
  RESULT: 82
- BINDER: "XYIQNXPLG (by its name: desaminoselenocysteine (3-selenopropanoic acid) at position 1, L-selenocysteine at position 6, diselenide bridge; free C-terminal carboxylic acid; structure is not given) [d[C1,6U]-OT-OH]"
  RESULT: 49

(1) [Sec]YIQNCPLG-NH2 (bridge 1-6 via selenosulfide) [[C1U]-OT]
(2) XYIQNXPLG (L-selenocysteine at positions 1 and 6, diselenide bridge; free C-terminal carboxylic acid, also called [Se-Se]-OT-OH) [[C1,6U]-OT-OH]
Lookup: Hi, I'm comparing 1 with 2 and wondering which one has the bigger number for Emax, FLIPR calcium assay. Any idea? Pick one and reply with its label.
Found: 1
